# target.entity: T1, DFNB31_3, Q9P202
# T1 sequence (Q9P202 811-907, limits assumed, looked up): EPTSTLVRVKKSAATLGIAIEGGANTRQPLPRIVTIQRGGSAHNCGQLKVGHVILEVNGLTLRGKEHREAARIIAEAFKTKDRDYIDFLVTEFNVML
# measurement.description: holdup assay
# Design: key: below the threshold = too weak to quantify, mostly under pKd 3.1 to 4
# cond: plain residues with an end cap or a label only (N-terminal biotin on a linker: ado-ado)
measured.endpoint: pKd

As a guide, the following entries are already answered.
| binder | pKd |
| --- | --- |
| GTMFLRETSL [GUCY1A2, P33402] | 3.5 |
| NTALVESEDL [PALLS, Q8WX93;Q8WX93-1] | below the threshold |
| PALKNGQYWV [CSPG4, Q6UVK1] | below the threshold |
| GSQSQVETEA [FKBP4, Q02790] | below the threshold |
| PLATCDETSI [SEMA4F, O95754] | 3.7 |
| FVFESRKEIL [TBPL1, P62380] | below the threshold |
| IQISELETNV [SLC1A7, O00341] | below the threshold |

Please look at the following binder next.
In one line, give reported pKd of the entry SQDPKKPSRV [CBY2, Q8NA61] .
below the threshold
